Taken from the Immune Epitope Database (IEDB).

- Test system: HLA-A*01:01
- Assay info: IEDB peptide-MHC binding, purified MHC/competitive/radioactivity; filed as Kd, often an IC50 or EC50 that approximates it; bounds were set here for any values at or beyond the usual limits of such assays
- Experimental context: source organism: Lymphocytic choriomeningitis virus (strain Armstrong)
Observed property: pKd
One number for each entry, as −log10 of the molar value.

get_value(item= `CYSSVNDRLV` , readout=pKd) returns 4.95

---

For each of the sequences below, state its pKd.
- Test system: HLA-B*51:01
- Assay info: IEDB peptide-MHC binding, purified MHC/competitive/radioactivity; filed as Kd, often an IC50 or EC50 that approximates it; bounds were set here for any values at or beyond the usual limits of such assays
- Experimental context: source organism: SARS coronavirus Tor2
Answers are plain numbers, as −log10 of the molar value.

Primary sequence	pKd
FPQAAPHGVV	6.80
MPICMDVRAI	8.65
KPVDTSNSF	6.05
WPVTLACFVL	8.04

# input for lookup
get_value(item= `KPRSQMETDF` , readout=pKd) returns 5.60

---

- Test system: HLA-A*68:02
- Assay info: IEDB peptide-MHC binding, purified MHC/competitive/radioactivity; filed as Kd, often an IC50 or EC50 that approximates it; bounds were set here for any values at or beyond the usual limits of such assays
- Experimental context: source organism: Dengue virus 3 Martinique/1243/1999
For each of the sequences below, state its Kd.
Give bare numbers, in nM.

Please review the entries below; each comes with its answer.
Primary sequence	Test system	Kd / nM
FLAIPPTAGV	HLA-A*68:02	9.73
FTMTHRRPTI	HLA-A*68:02	114
ETYQLWTALI	HLA-A*68:02	2.28

get_value(item= `VTPSMTMRCV` , readout=Kd) returns 193

---

- Test system: HLA-C*04:01
- Assay info: IEDB peptide-MHC binding, purified MHC/direct/fluorescence; filed as Kd, often an IC50 or EC50 that approximates it; bounds were set here for any values at or beyond the usual limits of such assays
- Experimental context: source organism: Vaccinia virus WR
Observed property: Kd

get_value(item= `FTSSFYNYV` , readout=Kd) returns ≥ 20 µM

---

- Test system: HLA-A*31:01
- Assay info: IEDB peptide-MHC binding, purified MHC/competitive/radioactivity; filed as Kd, often an IC50 or EC50 that approximates it; bounds were set here for any values at or beyond the usual limits of such assays
- Experimental context: source organism: Mammarenavirus machupoense
Observed property: Kd (nM)
Answers are plain numbers, in nM.

get_value(item= `DSVKSILKWH` , readout=Kd) returns 2650

---

- Test system: HLA-A*02:06
- Assay info: IEDB peptide-MHC binding, purified MHC/competitive/fluorescence; filed as Kd, often an IC50 or EC50 that approximates it; bounds were set here for any values at or beyond the usual limits of such assays
- Experimental context: source organism: Mycobacterium tuberculosis variant bovis BCG str. Pasteur 1173P2
Observed property: Kd

Kd value, target or system HLA-A*02:06, for `YLAEGHACL` : ≤ 1 nM

---

- Test system: HLA-B*27:05
- Assay info: IEDB peptide-MHC binding, purified MHC/direct/fluorescence; filed as Kd, often an IC50 or EC50 that approximates it; bounds were set here for any values at or beyond the usual limits of such assays
- Experimental context: source organism: Salmonella enterica
Observed property: Kd (nM)
Answers are plain numbers, in nM.

get_value(item= `AMMWRIAQL` , readout=Kd) returns 348
